# Test: Cytotoxicity against human Huh7.5 cells measured after 48 hrs by MTS assay
# Format: toxicity, cell-based, Huh-7
# Condition Description: Huh7.5 cells
I'd be grateful if you could share measured CC50 at 48 h for these entries.

Some solved entries appear below for comparison.
OC1CCCC[C@H]2[C@H]1[C@@H](c1cccc(F)c1)CN2Cc1ccccc1 (mixture of isomers) ... 36.9 µM
O=C1CCCC[C@H]2[C@H]1[C@@H](c1ccccc1)CN2Cc1ccccc1 (racemic) ... 134 µM
O=C1CCCC[C@@H]2[C@H]1[C@@H](c1ccccc1)CN2S(=O)(=O)c1ccccc1 (racemic) ... > 200 µM

Need CC50 at 48 h for each of these compounds.
1. C[C@]12C[C@@H](Cc3ccccc3)N(Cc3ccccc3)[C@H]1CCCC(=O)N2 (racemic)
2. Cc1ccc(S(=O)(=O)N2[C@H](C(=O)NCCc3ccccc3)C[C@@H]3C(=O)CCCC[C@@H]32)cc1 (racemic)
3. Cc1ccc(S(=O)(=O)N2[C@H](C(=O)O)C[C@@H]3/C(=N/Nc4ccccc4)CCCC[C@@H]32)cc1 (racemic)
4. O=C1CCCC[C@H]2[C@H](N1)[C@@H](c1ccccc1)CN2Cc1ccccc1 (racemic)
5. CCNC(=O)[C@@H]1C[C@@H]2C(=O)CCCC[C@@H]2N1S(=O)(=O)c1ccc(C)cc1 (racemic)

1: > 50 µM; 2: 153 µM; 3: > 200 µM; 4: > 200 µM; 5: > 200 µM

Would you be so kind as to report CC50 at 48 h for each listed record?
1. Cc1ccc(S(=O)(=O)N2[C@H](C(=O)O)C[C@@H]3C(=O)CCCC[C@@H]32)cc1 (racemic)
2. CCOC(=O)[C@@H]1C[C@@H]2/C(=N/OCc3ccccc3)CCCC[C@@H]2N1S(=O)(=O)c1ccc(C)cc1 (racemic)
3. CCOC(=O)[C@@H]1C[C@@H]2[C@@H](CCC[C@@H]2O)N1S(=O)(=O)c1ccc(C)cc1 (racemic)
4. CCOC(=O)[C@@H]1C[C@@H]2C(=O)CCCC[C@@H]2N1S(=O)(=O)c1ccnn1C (racemic)
5. CCOC(=O)[C@@H]1C[C@@H]2/C(=N/Nc3ccccc3)CCCC[C@@H]2N1S(=O)(=O)c1ccc(C)cc1 (racemic)

1. > 200 µM
2. > 200 µM
3. > 150 µM
4. > 200 µM
5. > 200 µM

Please look at the items below and tell me CC50 at 48 h for each one, in order.
1. CCOC(=O)[C@@H]1C[C@@H]2[C@@H](OC(C)=O)CCCC[C@@H]2N1S(=O)(=O)c1ccc(C)cc1 (racemic)
2. CCOC(=O)[C@@H]1C[C@]2(C)C(=O)CCCC[C@@H]2N1S(=O)(=O)c1ccc(C)cc1 (racemic)

["> 200 µM", "> 200 µM"]

====

# Test: Selectivity index, ratio of CC50 for human Huh7.5 cells to EC50 for HCV genotype 2a infected in human Huh7.5-FGR-JC1-Rluc2A replicon cells
# Design: species or system Huh-7
Kindly state Ratio CC50/EC50 for each of the entries shown.
Numbers only.

Below, each entry is followed by its recorded Ratio CC50/EC50 result.
CCOC(=O)[C@@H]1C[C@@H]2[C@@H](O)CCCC[C@@H]2N1S(=O)(=O)c1ccc(C)cc1 (racemic) ... 7.3
OC1CCCC[C@H]2[C@H]1[C@@H](c1cccc(F)c1)CN2Cc1ccccc1 (mixture of isomers) ... 30.8

Next molecule, Ratio CC50/EC50 to be filled in.
What measured Ratio CC50/EC50 goes with CCOC(=O)[C@@H]1C[C@@H]2[C@@H](OC(C)=O)CCCC[C@@H]2N1S(=O)(=O)c1ccc(C)cc1 (racemic) ?
7.7

Origin of the recorded values: ChEMBL document CHEMBL3865803
